These entries and their values trace back to the FLAb antibody collection (doi:10.7554/elife.23156).

B1: scFv; the commonest letter at each place (parent)
chain 1: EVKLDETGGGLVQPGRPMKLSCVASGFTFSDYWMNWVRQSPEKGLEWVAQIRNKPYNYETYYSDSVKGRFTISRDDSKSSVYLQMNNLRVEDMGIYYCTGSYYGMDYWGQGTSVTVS
chain 2: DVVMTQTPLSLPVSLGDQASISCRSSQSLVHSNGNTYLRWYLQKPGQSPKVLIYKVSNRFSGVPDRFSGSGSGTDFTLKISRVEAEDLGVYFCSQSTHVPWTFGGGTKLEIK

# Variants of: B1
# EXPERIMENTAL_DETAILS: yeast surface expression (ratio to wild type); higher = more expressed
# RUN_CONDITIONS: format: scFv 4-4-20, heavy + light
RESULT_TYPE: yeast surface expression

>  <VARIANT_DESIGNATION>
chain 1 Y102E Y107A

>  <yeast surface expression>
0.904

$$$$

Fill blank: measured yeast surface expression of the variant chain 1 S101W Y103R G104S is ____.
0.468

Proceed to chain 1 S101W Y102Q W108A
0.239
